B1: library; a variant is named by its letters at N, in order (parent)
chain: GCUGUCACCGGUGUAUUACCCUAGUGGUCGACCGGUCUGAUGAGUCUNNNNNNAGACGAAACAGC

# Variants of: B1
# assay text: normalized RNA/DNA level without ligand (relative to sTRSVctl = 100) (log10 (% of sTRSVctl)); ligand: hypoxanthine (xanthine aptamer); higher = less ribozyme self-cleavage, higher mRNA level
# assay context: HEK293T, reporter: mCherry (pCS4076), ligand present: no
Recorded normalized RNA/DNA level without ligand (log10), one value per entry.
Please give only the number in your answer, with no unit.

| variant string | numeric result |
| --- | --- |
| ACUUCC | 1.92 |
| AAGUCG | 1.19 |
| AAAAGC | 1.77 |
| CCGAUC | 1.87 |
| AUGACG | 1.35 |

The value of normalized RNA/DNA level without ligand (log10) measured for the variant UCUAGC turned out to be 1.85

The value of normalized RNA/DNA level without ligand (log10) measured for the variant UCGUUU turned out to be 1.8

The value of normalized RNA/DNA level without ligand (log10) measured for the variant GUGGCU turned out to be 1.88

The value of normalized RNA/DNA level without ligand (log10) measured for the variant UAGCCG turned out to be 1.73

The value of normalized RNA/DNA level without ligand (log10) measured for the variant UGAGGG turned out to be 1.51

The value of normalized RNA/DNA level without ligand (log10) measured for the variant GACCCC turned out to be 1.87
